target: human glucagon receptor (Glucagon-R) (human, UniProt P47871 26-477); test: cell-based or functional assay
Sequence (P47871 26-477): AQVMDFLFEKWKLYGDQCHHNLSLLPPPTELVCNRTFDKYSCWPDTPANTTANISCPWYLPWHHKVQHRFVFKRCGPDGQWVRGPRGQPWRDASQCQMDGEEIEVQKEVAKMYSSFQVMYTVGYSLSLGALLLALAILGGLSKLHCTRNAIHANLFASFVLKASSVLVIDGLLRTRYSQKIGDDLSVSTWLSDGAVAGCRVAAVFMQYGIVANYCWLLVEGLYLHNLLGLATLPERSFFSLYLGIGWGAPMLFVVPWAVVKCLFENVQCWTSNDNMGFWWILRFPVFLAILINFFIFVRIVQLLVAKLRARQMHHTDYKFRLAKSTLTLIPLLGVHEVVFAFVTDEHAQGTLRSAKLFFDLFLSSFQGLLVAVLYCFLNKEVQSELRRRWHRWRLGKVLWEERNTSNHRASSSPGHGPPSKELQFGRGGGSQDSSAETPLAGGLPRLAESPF
Square brackets hold non-standard residues; d marks the D form. Side chains are listed from the residue outwards. * marks the point of attachment. Palmitoyl = CCCCCCCCCCCCCCCC(=O)*; Aib = CC(C)(N)C(=O)O
# label = fulfilled if EC50 (nM) GuR; cAMP content, HEK293 cells expressing the human glucagon receptor < 0.3 nM else not fulfilled

Examples from the recorded data:
In [3]: df
Out[3]:
                                     binder  discrete_label
0  H-H[Aib]QGTFTSDYSKYLDSK([3‑aminopropanoyl-Palmitoyl])AAHDFVEWLLSA-NH2 [Compound 215]   not fulfilled
1  H-HSQGTFTSDYSAYLDSRRAQDFVWLMNT-NH2 [Compound 242]   not fulfilled
2  H-HSQGTFTSDYSRYLDSRRAQDFVWLLNK-NH2 [Compound 254]       fulfilled
3  H-HSQGTFTSDYSKYLDKRRAEDFVWLMNT-NH2 [Compound 256]       fulfilled
4  H-HSQGTFTSDYSKYLDSRAAQDFVWLMNT-NH2 [Compound 246]       fulfilled

Threshold test, EC50 (nM) GuR; cAMP content, HEK293 cells expressing the human glucagon receptor < 0.3 nM: H-HSQGTFTSDYSKYLDRARADDFVAWLKST-NH2 [Compound 12]
not fulfilled

Consider the binder H-HSQGTFTSDYSKYLDSRSAQDFVWLMNT-NH2 [Compound 245] . Is its EC50 (nM) GuR; cAMP content, HEK293 cells expressing the human glucagon receptor strictly less than 0.3 nM?
fulfilled

EC50 (nM) GuR; cAMP content, HEK293 cells expressing the human glucagon receptor strictly < 0.3 nM for this binder? H-HSQGTFTSDYSRYLDERRAQDFVWLMNT-NH2 [Compound 258]
fulfilled

Lab note: confirm whether the reported EC50 (nM) GuR; cAMP content, HEK293 cells expressing the human glucagon receptor for this binder is below 0.3 nM, equality not counting. binder: H-HSQGTFTSDYSKYLDSERAQDFVWLMNT-NH2 [Compound 243]
fulfilled

Source listed as patent US20130157953A1.
